Tested on: COR-L 105
Assay: relative viability (nuclei count vs DMSO), 5 days (fraction); higher = more cells survive
Conditions: first compound 0.05 µM
Assign relative viability to each entry below.
# answer = number (no unit)

Find the measured relative viability of CC1(C)CCC(c2ccc(Cl)cc2)=C(CN2CCN(c3ccc(C(=O)NS(=O)(=O)c4ccc(N[C@H](CCN5CCOCC5)CSc5ccccc5)c(S(=O)(=O)C(F)(F)F)c4)cc3)CC2)C1 [Navitoclax] + Nc1nc2[nH]cc(CCc3ccc(C(=O)N[C@@H](CCC(=O)O)C(=O)O)cc3)c2c(=O)[nH]1 [Pemetrexed] (partner 0.2 µM) and report it.
0.921

Find the measured relative viability of CC1(C)CCC(c2ccc(Cl)cc2)=C(CN2CCN(c3ccc(C(=O)NS(=O)(=O)c4ccc(N[C@H](CCN5CCOCC5)CSc5ccccc5)c(S(=O)(=O)C(F)(F)F)c4)cc3)CC2)C1 [Navitoclax] + COc1cc2c(Oc3ccc(NC(=O)C4(C(=O)Nc5ccc(F)cc5)CC4)cc3F)ccnc2cc1OCCCN1CCOCC1 [Foretinib] (partner 0.25 µM) and report it.
1.31

Find the measured relative viability of CC1(C)CCC(c2ccc(Cl)cc2)=C(CN2CCN(c3ccc(C(=O)NS(=O)(=O)c4ccc(N[C@H](CCN5CCOCC5)CSc5ccccc5)c(S(=O)(=O)C(F)(F)F)c4)cc3)CC2)C1 [Navitoclax] + CS(=O)(=O)N1CCN(Cc2cc3nc(-c4cccc5[nH]ncc45)nc(N4CCOCC4)c3s2)CC1 [Pictilisib] (partner 1 µM) and report it.
0.41
